Numbers sourced from patent US12590062B2.

# ASSAYED SYSTEM: PD-1/PD-L1 (Homo sapiens, UniProt Q9NZQ7)
# Sequence (Q9NZQ7 19-238 limits assumed): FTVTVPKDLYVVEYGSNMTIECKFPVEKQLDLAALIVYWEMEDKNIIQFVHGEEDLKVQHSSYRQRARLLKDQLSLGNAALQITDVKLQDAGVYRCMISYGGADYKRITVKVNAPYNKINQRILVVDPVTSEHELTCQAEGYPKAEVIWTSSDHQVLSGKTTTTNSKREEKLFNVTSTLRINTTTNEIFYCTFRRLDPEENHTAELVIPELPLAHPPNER
# PROCEDURE SUMMARY: PD-1/PD-L1 biochemical protein-protein interaction assay (ALPHA)
# PARTICULARS: 0.3 nM His tagged PD-L1, 2.5 nM biotinylated Fc-PD-1, 60 minutes at 25° C., read-out: IC50 PD-L1-PD-1 Alpha IC50-mono PD-L1-fcP-D1
# IC50 listing for each entry below
Write down the numeric answer in nM and omit the unit.

Example results:
COc1nc(O[C@H]2CCc3c(-c4cccc(-c5cnc(CN6CC(CO)C6)c(OC)n5)c4Cl)cccc32)c(Cl)cc1CN1CC[C@H](C(=O)O)C1	0.064
Cc1c(COc2cc(OCc3cncc(C#N)c3)c(CNC[C@@H](O)CC(=O)O)cc2Cl)cccc1-c1cccc(COc2cc(OCc3cncc(C#N)c3)c(CNC[C@@H](O)CC(=O)O)cc2Cl)c1C	0.4
COc1nc(OCc2cccc(-c3cccc(COc4ccc(CN[C@@](C)(CO)C(=O)O)c(OC)n4)c3C)c2C)ccc1CN[C@@](C)(CO)C(=O)O	0.7
COc1nc(-c2cccc(-c3cccc4c3CC[C@@H]4Oc3nc(OCc4cncc(C#N)c4)c(CN[C@@](C)(CO)C(=O)O)cc3Cl)c2C)ccc1C1=NCCN1	0.064

Let us examine a further case.
Which IC50 is reported with PD-1/PD-L1 (Homo sapiens, UniProt Q9NZQ7) for this entry: `N#Cc1cc(C#N)cc(COc2nc(OCc3cccc(-c4cccc(-c5ccc(OCCN6CC7(CCC(=O)N7)C6)cc5)c4Cl)c3Cl)c(Cl)cc2CNC[C@@H](O)CC(=O)O)c1` ?
0.259
